# assayed_system: T1, c-mpl receptor (Homo sapiens (Human), UniProt P40238 26-491, The MPL used for panning was biotinylated; the biotin site is not stated and is not carried by the letters.)
# T1 construct: also called TPO receptor
# T1 sequence: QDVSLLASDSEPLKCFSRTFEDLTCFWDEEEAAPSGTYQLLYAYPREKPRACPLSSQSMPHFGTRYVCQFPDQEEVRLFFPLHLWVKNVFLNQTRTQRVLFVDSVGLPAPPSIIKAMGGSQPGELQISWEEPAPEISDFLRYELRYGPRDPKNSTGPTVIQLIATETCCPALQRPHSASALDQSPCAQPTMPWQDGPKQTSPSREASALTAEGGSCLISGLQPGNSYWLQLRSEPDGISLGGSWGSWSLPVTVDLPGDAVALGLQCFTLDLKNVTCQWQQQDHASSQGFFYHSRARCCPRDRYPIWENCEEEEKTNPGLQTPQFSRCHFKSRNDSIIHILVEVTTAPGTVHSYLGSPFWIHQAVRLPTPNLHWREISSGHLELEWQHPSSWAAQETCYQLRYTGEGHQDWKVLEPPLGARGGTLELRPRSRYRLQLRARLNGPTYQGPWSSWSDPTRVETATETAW
# assay: phage-ELISA
measured_property: Relative activity
Note: the reply should be a number with no unit written.

- binder: "IEGWPRQLYAHAKEDHS [SEQ ID NO: 280]"
  test_value: 95.6
- binder: "IAQVRMLGRFTLLVLSRARAASTQLSFQHSICAQIEGGAQTQWDAARA [SEQ ID NO: 305]"
  test_value: 47.4

IN: Consider the binder shown here: IEGRHYQKWPARRLGHS [SEQ ID NO: 302] What is its recorded Relative activity?
OUT: 52

IN: Then this binder: IEGPTFKQWQKWRKTHS [SEQ ID NO: 274]
OUT: 105

IN: Then this binder: IEGWTWQFYAHPQGDHS [SEQ ID NO: 317]
OUT: 24.2

IN: Then this binder: SEQ ID NO: 246 (peptide) peptide: IEGQSWEFENDRVPAHSLERVLLLRRVPTEPSGPSICAQIEGPTFKQWQECINGHS
OUT: 173

IN: Then this binder: IEGPTFKQWQMLRRHHS [SEQ ID NO: 328]
OUT: 12.5

IN: Then this binder: IEGPTFKQWQKLRRSHS [SEQ ID NO: 261]
OUT: 125

IN: Then this binder: IEGWVWCQWLAARA [SEQ ID NO: 290]
OUT: 79.1

IN: Then this binder: IEGWTWQFYALPRGDHS [SEQ ID NO: 297]
OUT: 63.2

IN: Then this binder: IEGWVWWPWLAARA [SEQ ID NO: 296]
OUT: 63.5

The values you see were collected from patent US20110275122A1.
